Parameter Activity: see the listing below.
System: Rattus norvegicus
Test: Antihyperlipidemic activity in Charles Foster rat assessed as reduction of triton WR-1339-induced plasma triglyceride level at 100 mg/kg, po after 18 hrs
Format: functional
Parameters: scale not given: the % may be the effect or the level left
Provide only the numeric value, understood in %.

COc1ccc([C@@H](O)CNC(=O)/C=C/c2ccccc2)cc1 [AEGELINE]
22
Cc1ccc(C(=O)CNC(=O)/C=C/c2ccc(O)cc2)cc1
21
Cc1ccc(C)c(OCCCC(C)(C)C(=O)O)c1 [GEMFIBROZIL]
31
Cc1ccc(C(=O)CNC(=O)c2cccnc2)cc1
2

Now for the molecule whose Activity we want.
Lookup: // returns reported Activity for input COc1cc(/C=C/C(=O)NCC(O)c2ccc(C)cc2)ccc1O (mixture of isomers)
Found: 23
